Listed molecules paired with reported inhibition at 10 µM
biological target: rat B1R (bradykinin receptor 1) (Rattus norvegicus); construct: expressed in transfected cells; host or cells: CHO K1 cells; test: FLIPR Ca2+ assay (Fluo-4) on CHO K1 cells stably transfected with the B1R gene of the rat (rB1R cells): % inhibition at 10 μM / IC50, agonist Des-Arg9-bradykinin; format: cell-based; settings: CHO-K1, rat B1R
Sequence (P97583 whole entry): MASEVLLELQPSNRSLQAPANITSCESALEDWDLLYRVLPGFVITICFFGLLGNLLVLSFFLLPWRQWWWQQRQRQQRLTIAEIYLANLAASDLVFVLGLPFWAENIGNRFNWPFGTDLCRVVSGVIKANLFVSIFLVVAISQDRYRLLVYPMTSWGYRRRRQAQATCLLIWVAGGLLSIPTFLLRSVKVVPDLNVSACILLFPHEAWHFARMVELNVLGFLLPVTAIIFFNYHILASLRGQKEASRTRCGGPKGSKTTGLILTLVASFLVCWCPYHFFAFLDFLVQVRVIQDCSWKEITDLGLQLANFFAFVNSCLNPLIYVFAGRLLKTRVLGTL

Molecule | Test System | Value Units | inhibition at 10 µM
O=C(NC1CCc2ccc(C(=O)N3CCC4(CC3)CCN(c3ccncc3)CC4)cc21)c1cccc(C(F)(F)F)c1Cl (centres unmarked) | rat B1R (bradykinin receptor 1) (Rattus norvegicus) | % | 101
CC1(C)Cc2ccc(C(=O)N3CCC4(CC3)CCN(c3ccncc3)CC4)cc2C1NC(=O)c1c(Cl)cccc1Cl (centres unmarked) | rat B1R (bradykinin receptor 1) (Rattus norvegicus) | % | 105
Cc1cccc(Cl)c1S(=O)(=O)NC1c2cc(C(=O)N3CCC4(CC3)CCN(c3ccncc3)CC4)ccc2CC1(C)C (centres unmarked) | rat B1R (bradykinin receptor 1) (Rattus norvegicus) | % | 99
O=C(N[C@@H]1CCOc2cc(F)c(C(=O)N3CCC4(CCN(c5ccncc5)CC4)C3)cc21)c1ccccc1Cl | rat B1R (bradykinin receptor 1) (Rattus norvegicus) | % | 105
O=C(N[C@@H]1CCc2ccc(C(=O)N3CCC4(CC3)CCN(c3ccncc3)CC4)cc21)c1cccc(Cl)c1Cl | rat B1R (bradykinin receptor 1) (Rattus norvegicus) | % | 98
O=C(NCc1ccccc1Cl)NC1CCc2ccc(C(=O)N3CCC4(CC3)CCN(c3ccncc3)CC4)cc21 (centres unmarked) | rat B1R (bradykinin receptor 1) (Rattus norvegicus) | % | 100
Cc1cc(OC(F)(F)F)ccc1C(=O)N(C)C1CCc2ccc(C(=O)N3CCC4(CC3)CCN(c3ccncc3)CC4)cc21 (centres unmarked) | rat B1R (bradykinin receptor 1) (Rattus norvegicus) | % | 106
O=C(N[C@@H]1CCc2ccc(C(=O)N3CCC4(CC3)CCN(c3ccncc3)C4)cc21)c1c(Cl)cccc1C(F)(F)F | rat B1R (bradykinin receptor 1) (Rattus norvegicus) | % | 105

Data origin: patent US8455475B2
